Target: T1, Fc fused human IL-18Rα (human, UniProt Q13478 19-329, limits assumed)
T1 construct: also called IL-18Rα monomer; IL-18 receptor alpha; not shown: Fc part
T1 sequence (looked up): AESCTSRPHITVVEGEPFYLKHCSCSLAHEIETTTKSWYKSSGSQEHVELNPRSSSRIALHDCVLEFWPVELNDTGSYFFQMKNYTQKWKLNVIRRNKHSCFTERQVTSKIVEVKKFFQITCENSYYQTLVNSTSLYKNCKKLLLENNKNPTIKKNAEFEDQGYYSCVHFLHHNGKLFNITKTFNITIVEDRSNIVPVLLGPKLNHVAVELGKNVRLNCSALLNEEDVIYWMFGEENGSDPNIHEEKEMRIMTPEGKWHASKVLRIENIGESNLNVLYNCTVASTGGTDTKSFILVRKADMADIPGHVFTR
Assay: SPR, Fc-IL-18Rα captured, 1:1 model
Decision: kon beneath 200000 M⁻¹ s⁻¹ gives class 1; kon meeting or exceeding 200000 M⁻¹ s⁻¹ gives class 0.

* Modified IL-18 polypeptide of SEQ ID NO: 16 (C38S, C68S, C76S, C127S, K70C) (ligand) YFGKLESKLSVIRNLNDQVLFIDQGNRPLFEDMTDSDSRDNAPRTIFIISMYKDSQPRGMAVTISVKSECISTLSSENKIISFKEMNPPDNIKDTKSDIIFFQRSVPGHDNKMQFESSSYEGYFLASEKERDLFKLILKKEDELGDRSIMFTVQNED | class 1
* Modified IL-18 polypeptide of SEQ ID NO: 18 (E06K, K53A, T63A) (ligand) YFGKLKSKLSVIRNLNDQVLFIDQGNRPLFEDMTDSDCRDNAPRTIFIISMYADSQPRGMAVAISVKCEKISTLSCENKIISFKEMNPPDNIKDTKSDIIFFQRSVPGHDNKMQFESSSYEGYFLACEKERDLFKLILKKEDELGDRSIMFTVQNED | class 1
* Modified IL-18 polypeptide of SEQ ID NO: 15 (C38S, C68S, C76S, C127S) (ligand) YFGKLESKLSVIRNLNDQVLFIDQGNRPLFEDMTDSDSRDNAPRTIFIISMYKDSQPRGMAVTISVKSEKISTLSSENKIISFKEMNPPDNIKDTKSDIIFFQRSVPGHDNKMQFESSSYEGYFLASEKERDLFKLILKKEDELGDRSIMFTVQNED | class 1
* Modified IL-18 polypeptide of SEQ ID NO: 22 (E06K, K53A, C38S, C68S, C76S, C127S, K70C) (ligand) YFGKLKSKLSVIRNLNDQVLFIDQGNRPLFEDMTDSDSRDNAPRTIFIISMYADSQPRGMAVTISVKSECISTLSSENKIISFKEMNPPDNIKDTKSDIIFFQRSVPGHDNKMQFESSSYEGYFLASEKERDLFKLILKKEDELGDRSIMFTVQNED | class 1
* Modified IL-18 polypeptide of SEQ ID NO: 71 (E6K, C38S, K53A) (ligand) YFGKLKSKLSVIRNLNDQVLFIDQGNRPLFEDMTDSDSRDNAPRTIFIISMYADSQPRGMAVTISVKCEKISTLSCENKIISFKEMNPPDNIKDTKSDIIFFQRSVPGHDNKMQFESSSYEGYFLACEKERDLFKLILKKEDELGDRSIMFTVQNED | class 0
* Modified IL-18 polypeptide of SEQ ID NO: 2 (E06K, K53A, S55A) (ligand) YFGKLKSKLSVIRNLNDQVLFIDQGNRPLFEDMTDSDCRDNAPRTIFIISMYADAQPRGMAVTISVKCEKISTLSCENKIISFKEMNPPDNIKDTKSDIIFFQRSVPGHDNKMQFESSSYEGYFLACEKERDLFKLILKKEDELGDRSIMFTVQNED | class 1
* Modified IL-18 polypeptide of SEQ ID NO: 10 (E06K, K53A, S55A, T63A) (ligand) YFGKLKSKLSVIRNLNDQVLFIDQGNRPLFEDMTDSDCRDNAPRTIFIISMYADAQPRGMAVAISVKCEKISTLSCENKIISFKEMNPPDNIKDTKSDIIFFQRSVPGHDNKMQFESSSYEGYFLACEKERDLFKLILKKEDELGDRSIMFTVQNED | class 0
